# TARGET DESC: serotonin transporter (SERT) (Homo sapiens, UniProt P31645)
# Construct: expressed in transfected cells; host or cells: CHO cells
# Sequence (P31645 whole entry): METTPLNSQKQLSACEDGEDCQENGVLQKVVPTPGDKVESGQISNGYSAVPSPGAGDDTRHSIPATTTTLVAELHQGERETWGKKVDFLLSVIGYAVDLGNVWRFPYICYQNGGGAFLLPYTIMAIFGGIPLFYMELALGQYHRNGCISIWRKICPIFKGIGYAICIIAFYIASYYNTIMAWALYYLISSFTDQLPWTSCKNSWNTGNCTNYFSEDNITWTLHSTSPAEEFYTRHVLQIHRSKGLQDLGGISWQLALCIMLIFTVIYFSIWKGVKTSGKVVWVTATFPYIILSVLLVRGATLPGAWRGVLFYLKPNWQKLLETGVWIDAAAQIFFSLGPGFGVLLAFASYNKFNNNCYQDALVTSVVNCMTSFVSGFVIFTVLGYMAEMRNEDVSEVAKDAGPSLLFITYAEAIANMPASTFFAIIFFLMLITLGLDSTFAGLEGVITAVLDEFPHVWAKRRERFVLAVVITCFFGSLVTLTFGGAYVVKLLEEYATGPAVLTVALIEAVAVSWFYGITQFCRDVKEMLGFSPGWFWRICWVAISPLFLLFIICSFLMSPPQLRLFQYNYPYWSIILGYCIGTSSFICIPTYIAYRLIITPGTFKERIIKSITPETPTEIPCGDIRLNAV
# EXPERIMENTAL PROTOCOL: Radioligand binding assay, serotonin transporter (SERT)
# CONDITION INFO: binding assay, test compound 1×10^−6 M
Listed compounds paired with reported inhibition at 1 µM
Give a bare numeral; the unit % is implied.

COMPOUND	REPORTED RESULT
O=S(=O)(NCC1CN(CCCc2noc3cc(F)ccc23)C1)c1ccc(Cl)cc1 [Compound 136]	9

inhibition at 1 µM reported for this compound O=S(=O)(NCC1CN(CCCc2c[nH]c3ccc(F)cc23)C1)c1ccc2ccccc2c1 [Compound 160] : 100

inhibition at 1 µM reported for this compound O=S(=O)(NCC1CN(CCOc2cccc3c2OCCO3)C1)c1ccc(-c2ccccc2)cc1 [Compound 178] : -6

inhibition at 1 µM reported for this compound O=S(=O)(NCC1CN(CCOc2nsc3ccccc23)C1)c1ccc2ccccc2c1 [Compound 162] : -9

---

# TARGET DESC: 5-HT6 receptor (Homo sapiens, UniProt P50406)
# Construct: purchased PerkinElmer
# Sequence (P50406 whole entry): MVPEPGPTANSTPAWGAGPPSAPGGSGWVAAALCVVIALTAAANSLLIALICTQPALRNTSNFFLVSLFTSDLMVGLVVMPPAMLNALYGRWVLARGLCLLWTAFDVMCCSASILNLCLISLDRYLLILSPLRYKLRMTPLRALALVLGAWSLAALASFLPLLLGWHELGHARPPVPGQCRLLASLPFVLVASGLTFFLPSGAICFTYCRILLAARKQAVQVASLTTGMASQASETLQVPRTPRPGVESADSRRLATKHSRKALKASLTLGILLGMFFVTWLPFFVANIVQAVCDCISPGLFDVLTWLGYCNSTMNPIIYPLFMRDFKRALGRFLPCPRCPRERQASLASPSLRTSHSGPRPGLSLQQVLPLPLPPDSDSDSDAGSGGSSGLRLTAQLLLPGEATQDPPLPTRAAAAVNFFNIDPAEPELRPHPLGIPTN
# EXPERIMENTAL PROTOCOL: Radioligand binding assay, serotoninergic 5-HT6 receptors;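 note: test compound at 1 µM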
# CONDITION INFO: binding assay result in %, Table 5a
QUANTITY KIND: inhibition at 1 µM (%)
Give a bare numeral; the unit % is implied.

See these solved cases before continuing.
MOLECULE	REPORTED RESULT
O=S(=O)(NCC1CCN(CCOc2cccc3ccccc23)C1)c1cc2ccc(Cl)cc2s1 (stereo not drawn) [Compound 269]	82
O=S(=O)(NC1CCN(CCCc2noc3cc(F)ccc23)C1)c1cc2ccc(F)cc2s1 (stereo not drawn) [Compound 234]	98
CC(C)(C)c1ccc(S(=O)(=O)NCC2CN(CCCc3noc4cc(F)ccc34)C2)cc1 [Compound 141]	92
O=S(=O)(NCC1CCN(CCCc2noc3cc(F)ccc23)C1)c1ccc(F)cc1 (stereo not drawn) [Compound 252]	75
O=S(=O)(NCC1CCN(CCCc2noc3cc(F)ccc23)C1)c1csc2ccccc12 (stereo not drawn) [Compound 261]	97

inhibition at 1 µM reported for this molecule O=S(=O)(NCC1CCN(CCCc2noc3cc(F)ccc23)C1)c1ccc(Cl)cc1 (stereo not drawn) [Compound 242] : 60

inhibition at 1 µM reported for this molecule Cc1cc(S(=O)(=O)NCC2CCN(CCCc3noc4cc(F)ccc34)C2)c(C)s1 (stereo not drawn) [Compound 262] : 69

inhibition at 1 µM reported for this molecule O=S(=O)(NCC1CN(CCCc2c[nH]c3ccc(Cl)cc23)C1)c1ccc2ccccc2c1 [Compound 161] : 87

inhibition at 1 µM reported for this molecule CC(C)(C)c1ccc(S(=O)(=O)NC2CCN(CCCc3noc4cc(F)ccc34)CC2)cc1 [Compound 328] : 94

inhibition at 1 µM reported for this molecule O=S(=O)(NC1CCN(CCOc2cccc3[nH]ccc23)C1)c1ccc2ccccc2c1 (stereo not drawn) [Compound 54] : 87

inhibition at 1 µM reported for this molecule Cn1ccc2c(S(=O)(=O)NCC3CCN(CCOc4cccc5ccccc45)C3)cccc21 (stereo not drawn) [Compound 275] : 84

inhibition at 1 µM reported for this molecule O=S(=O)(NCC1CN(CCOc2cccc3c2OCCO3)C1)c1ccc(C(F)(F)F)cc1 [Compound 180] : 31

inhibition at 1 µM reported for this molecule O=S(=O)(NCC1CN(CCOc2cccc3c2OCCO3)C1)c1csc2ccccc12 [Compound 190] : 34

inhibition at 1 µM reported for this molecule O=S(=O)(N[C@H]1CCN(CCCc2noc3cc(F)ccc23)C1)c1ccc2ccccc2c1 [Compound 207] : 101

inhibition at 1 µM reported for this molecule O=S(=O)(NCC1CN(CCOc2cccc3ccccc23)C1)c1cccc2ccccc12 [Compound 168] : 93

inhibition at 1 µM reported for this molecule O=S(=O)(NCC1CN(CCOc2cccc3ccccc23)C1)c1ccc(F)c(F)c1 [Compound 173] : 91

inhibition at 1 µM reported for this molecule O=S(=O)(N[C@H]1CCN(CCCc2noc3cc(F)ccc23)C1)c1cc2ccccc2o1 [Compound 215] : 93

inhibition at 1 µM reported for this molecule O=S(=O)(NCC1CCN(CCOc2cccc3c2OCCO3)C1)c1ccc(Br)cc1 (stereo not drawn) [Compound 305] : 52

inhibition at 1 µM reported for this molecule O=S(=O)(NCC1CCN(CCCc2noc3cc(F)ccc23)C1)c1ccc(F)c(Cl)c1 (stereo not drawn) [Compound 263] : 85

inhibition at 1 µM reported for this molecule Cc1c(S(=O)(=O)NCC2CN(CCCc3noc4cc(F)ccc34)C2)sc2ccc(F)cc12 [Compound 130] : 98

inhibition at 1 µM reported for this molecule O=S(=O)(NCC1CN(CCOc2cccc3ccccc23)C1)c1csc2ccccc12 [Compound 171] : 96

inhibition at 1 µM reported for this molecule O=S(=O)(NCC1CN(CCCc2noc3cc(F)ccc23)C1)c1ccc2ccccc2c1 [Compound 134] : 94

inhibition at 1 µM reported for this molecule Cn1ccc2c(S(=O)(=O)NCC3CN(CCOc4cccc5c4OCCO5)C3)cccc21 [Compound 188] : 14

inhibition at 1 µM reported for this molecule O=S(=O)(NCC1CCN(CCOc2cccc3c2OCCO3)C1)c1cccs1 (stereo not drawn) [Compound 302] : 35

---

# TARGET DESC: 5-HT7 receptor (Homo sapiens, UniProt P34969)
# Construct: purchased PerkinElmer
# Sequence (P34969 whole entry): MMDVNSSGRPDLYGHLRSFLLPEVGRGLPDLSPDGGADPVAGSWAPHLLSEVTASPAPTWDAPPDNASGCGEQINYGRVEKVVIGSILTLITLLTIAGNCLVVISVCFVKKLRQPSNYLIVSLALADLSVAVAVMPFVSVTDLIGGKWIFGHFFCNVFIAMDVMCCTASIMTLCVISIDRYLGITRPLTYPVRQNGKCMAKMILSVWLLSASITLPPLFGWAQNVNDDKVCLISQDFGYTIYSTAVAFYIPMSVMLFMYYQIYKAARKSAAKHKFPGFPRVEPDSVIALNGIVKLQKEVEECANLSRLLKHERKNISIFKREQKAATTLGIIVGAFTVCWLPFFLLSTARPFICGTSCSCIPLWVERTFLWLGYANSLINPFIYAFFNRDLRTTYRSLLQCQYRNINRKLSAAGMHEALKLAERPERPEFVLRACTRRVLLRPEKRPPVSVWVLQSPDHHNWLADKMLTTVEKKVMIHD
# EXPERIMENTAL PROTOCOL: Radioligand binding assay, serotoninergic 5-HT7 receptors;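 note: test compound at 1 µM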
# CONDITION INFO: binding assay result in %, Table 5a
QUANTITY KIND: inhibition at 1 µM (%)
Give a bare numeral; the unit % is implied.

COMPOUND	MEASURE UNIT	inhibition at 1 µM
Cc1cc(S(=O)(=O)NCC2CCN(CCOc3cccc4c3OCCO4)C2)c(C)s1 (stereo not shown) [Compound 312]	%	86
O=S(=O)(NC1CCN(CCOc2cccc3[nH]ccc23)C1)c1cccc2ccccc12 (stereo not shown) [Compound 53]	%	102
Cc1cc(S(=O)(=O)NC2CCN(CCCc3noc4cc(F)ccc34)C2)c(C)s1 (stereo not shown) [Compound 221]	%	95

5-HT7 receptor (Homo sapiens, UniProt P34969) assay, compound Cc1c(S(=O)(=O)NCC2CN(CCOc3cccc4c3OCCO4)C2)sc2ccc(Cl)cc12 [Compound 175] , recorded inhibition at 1 µM = 92

---

# TARGET DESC: dopaminergic receptors D3 (Homo sapiens)
# Sequence (P35462 whole entry): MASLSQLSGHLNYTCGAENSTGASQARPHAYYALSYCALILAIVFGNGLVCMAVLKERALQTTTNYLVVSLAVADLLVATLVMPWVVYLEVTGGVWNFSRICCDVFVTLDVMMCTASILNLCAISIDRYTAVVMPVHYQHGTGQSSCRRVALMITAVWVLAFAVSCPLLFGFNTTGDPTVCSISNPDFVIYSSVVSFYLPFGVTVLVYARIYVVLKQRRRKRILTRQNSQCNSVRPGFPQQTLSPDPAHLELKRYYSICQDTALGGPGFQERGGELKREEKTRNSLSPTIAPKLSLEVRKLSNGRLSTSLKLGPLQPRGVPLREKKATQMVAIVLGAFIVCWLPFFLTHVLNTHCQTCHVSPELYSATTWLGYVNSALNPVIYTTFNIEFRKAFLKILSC
# EXPERIMENTAL PROTOCOL: Radioligand binding assay, dopaminergic D3 receptors
# CONDITION INFO: test compound 1×10^−6 M
Met means recorded inhibition at 1 µM is 90% or above; Not met means it is below 90%.

These solved cases illustrate the format of a correct answer.
COMPOUND	CAT
O=S(=O)(NC1CCN(CCCc2c[nH]c3ccc(Cl)cc23)C1)c1ccc2ccccc2c1 (centres unmarked)	Not met
O=S(=O)(NCC1CN(CCOc2cccc3c2OCCO3)C1)c1ccc(Cl)c(Cl)c1	Not met
O=S(=O)(N[C@H]1CCN(CCCc2noc3cc(F)ccc23)C1)c1csc2ccccc12	Not met
O=S(=O)(N[C@H]1CCN(CCCc2noc3cc(F)ccc23)C1)c1cc2ccccc2o1	Not met
O=S(=O)(NCC1CCN(CCCc2noc3cc(F)ccc23)C1)c1ccc2c(c1)OCO2 (centres unmarked)	Not met
Cc1c(S(=O)(=O)NCC2CN(CCOc3cccc4ccccc34)C2)sc2ccc(F)cc12	Met

-- ask Decide: is the reported value of inhibition at 1 µM for O=S(=O)(NCC1CCN(CCOc2cccc3ccccc23)C1)c1ccc2ccccc2c1 (centres unmarked) equal to or greater than 90%?
-- reply Met

-- ask Decide: is the reported value of inhibition at 1 µM for COc1cccc(S(=O)(=O)NCC2CCN(CCCc3noc4cc(F)ccc34)C2)c1 (centres unmarked) equal to or greater than 90%?
-- reply Not met

---

Listed compounds paired with reported inhibition at 1 µM
# TARGET DESC: UniProt:P21917
# Sequence (P21917 1-419): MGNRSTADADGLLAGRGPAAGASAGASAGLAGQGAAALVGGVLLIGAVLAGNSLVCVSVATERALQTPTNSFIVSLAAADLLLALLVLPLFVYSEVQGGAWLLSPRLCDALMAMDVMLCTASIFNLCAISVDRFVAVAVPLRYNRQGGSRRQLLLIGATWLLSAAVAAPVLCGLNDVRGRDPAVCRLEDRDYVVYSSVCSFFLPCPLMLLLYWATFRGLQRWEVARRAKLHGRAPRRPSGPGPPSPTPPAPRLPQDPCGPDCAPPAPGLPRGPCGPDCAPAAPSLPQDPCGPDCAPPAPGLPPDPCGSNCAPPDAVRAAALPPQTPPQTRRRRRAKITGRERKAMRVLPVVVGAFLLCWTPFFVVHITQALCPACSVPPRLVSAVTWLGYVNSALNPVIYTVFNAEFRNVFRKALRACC
# EXPERIMENTAL PROTOCOL: Radioligand binding assay, dopaminergic D4 (D4.4) receptors
# CONDITION INFO: test compound 1×10^−6 M
Give a bare numeral; the unit % is implied.

See these solved cases before continuing.
COMPOUND	QUANTITY KIND	MEASURE UNIT	REPORTED RESULT
O=S(=O)(NC1CN(CCOc2cccc3[nH]ccc23)C1)c1cccc(Cl)c1 [Compound 47]	inhibition at 1 µM	%	80
O=S(=O)(NC1CCN(CCCc2noc3cc(F)ccc23)CC1)c1cccc2ccccc12 [Compound 34]	inhibition at 1 µM	%	37
O=S(=O)(NCC1CN(CCCc2noc3cc(F)ccc23)C1)c1ccc2ccccc2c1 [Compound 134]	inhibition at 1 µM	%	77
Cc1c(S(=O)(=O)NCC2CN(CCCc3noc4cc(F)ccc34)C2)sc2ccc(F)cc12 [Compound 130]	inhibition at 1 µM	%	67
O=S(=O)(NCC1CN(CCOc2cccc3c2OCCO3)C1)c1ccc(Cl)c(Cl)c1 [Compound 183]	inhibition at 1 µM	%	80

inhibition at 1 µM reported for this compound Cn1ccc2cc(S(=O)(=O)NCC3CCN(CCOc4cccc5c4OCCO5)C3)ccc21 (centres unmarked) [Compound 308] : 26

inhibition at 1 µM reported for this compound Cc1cccc(S(=O)(=O)NC2CN(CCOc3cccc4[nH]ccc34)C2)c1 [Compound 48] : 80

inhibition at 1 µM reported for this compound Cc1c(S(=O)(=O)N[C@@H]2CCN(CCCc3noc4cc(F)ccc34)C2)sc2ccc(Cl)cc12 [Compound 204] : 71
